Population Pyknosed Nuclei (%) listing for selected compounds.
tested on: Fibroblast; assay: Multiplex assay against human fibroblast; type: toxicity, cell-based; details: 48 h, 10 µM, compound concentration 10 uM, replicate 2
Returns: string containing the numeric result and its unit.

# annotated cases, reported Population Pyknosed Nuclei (%) shown
{"columns": ["smiles.code", "observable", "data.value"],
 "data": [
  ["S=C(NCCCc1c[nH]cn1)NCCCN(Cc1ccc(Cl)c(Cl)c1)c1ccc(Br)cn1", "Population Pyknosed Nuclei (%)", "7%"],
  ["CC(C)(C)c1ccc(CSc2cnn(C(C)(C)C)c(=O)c2Cl)cc1", "Population Pyknosed Nuclei (%)", "15%"],
  ["CC(C)C[C@H](CO)Nc1nc(S[C@@H](C)c2ccccc2)nc2nc(N)sc12", "Population Pyknosed Nuclei (%)", "14%"],
  ["CC(F)(F)CN1CCOc2c(nn(-c3ccccc3Cl)c2-c2ccc(Cl)cc2)C1=O", "Population Pyknosed Nuclei (%)", "7%"],
  ["Nc1nc(CC(=O)Nc2ccc(CCNC[C@H](O)c3ccccc3)cc2)cs1", "Population Pyknosed Nuclei (%)", "12%"],
  ["CCCCCCNC(=O)Nc1ccc(S(=O)(=O)Nc2ccc(CCNC[C@H](O)COc3ccc(O)cc3)cc2)cc1", "Population Pyknosed Nuclei (%)", "3%"]
]}

# evaluate next
Request the reported Population Pyknosed Nuclei (%) associated with O=c1ccc2ccc(OCCCCN3CCN(c4cccc5sccc45)CC3)cc2[nH]1
26%

Attribution: ChEMBL document CHEMBL5058577
